# Tested on: Acinetobacter baumannii
# TEST DESCRIPTION: Growth testing against ESKAPE pathogens: Acinetobacter baumannii
# Format: cell-based
# Parameters: key: Growth; X: No Growth
# RECORDED CONDITIONS: 6 μg/ml
RECORDED METRIC: Activity against Acinetobacter baumannii (growth observed)

[
  {
    "COMPOUND": "CCCCCC(=O)N1CCN(c2cc3c(cc2F)c(=O)c(C(=O)OC2C(=O)N(SC(C)CC)C2c2ccccc2Cl)cn3C2CC2)CC1 (stereo not drawn)",
    "OBS VALUE": "G"
  },
  {
    "COMPOUND": "CCC(C)SN1C(=O)C(OC(=O)c2cn(C3CC3)c3cc(N4CCN(C(C)=O)CC4)c(F)cc3c2=O)C1c1ccccc1Cl (stereo not drawn)",
    "OBS VALUE": "G"
  },
  {
    "COMPOUND": "CCCCCC(=O)N1CCN(c2cc3c(cc2F)c(=O)c(C(=O)OC2C(=O)N(SC)C2c2ccccc2)cn3C2CC2)CC1 (stereo not drawn)",
    "OBS VALUE": "G"
  }
]
